Source: PubChem BioAssay (NCI)

# Test system: SF-268 CNS
# method_summary: NCI tumour cell line growth inhibition, 48 h
Reported TGI values for a set of compounds

Below, each entry is followed by its recorded TGI result.
1. CC1(c2ccc(F)cc2)C2C(=O)NC(=O)C1C(=O)NC2=O (stereo not given)
> 100 µM
2. CCOC(=O)c1nc2ccccc2nc1Nc1ccc(C(=O)OC)s1
> 100 µM
3. CCCCCc1cc2cc3c(c(O)c2c(=O)[nH]1)C1(CCC3)C(=O)c2c(O)ccc(O)c2C1=O
> 100 µM
4. C[C@]12CC[C@H]3[C@@H](CC[C@]4(O)C[C@@H](O)CC[C@]34C=O)[C@@]1(O)CC[C@@H]2C1=CC(=O)OC1
2 µM
5. COc1cc2c(cc1OC)C(Cl)C(c1ccc(Br)cc1)=C2Cl (stereo not given)
29.4 µM
6. C[Si](C)(C)OC1(C#N)c2ccccc2CCCC12CCCC2 (stereo not given)
> 100 µM

Field: next compound
Lookup: So what TGI did O=C1c2ccccc2C(=O)N1CC#CCO get with SF-268 CNS?
Found: > 100 µM
